Hey, just so you know, these numbers are from the supplement of paper PMC4862054.

Tested on: MCF-10A
Test: normalised response (% of control), CellTiter-Glo; higher = more viable cells (100 = DMSO, 0 = benzethonium chloride kill control)
Details: incubation time: 72 h
QUANTITY NAME: normalised response (%)
Numbers only, in %.

Observe how each entry below is paired with its result.
COMPOUND	RESULT NUMBER
N#Cc1ccc(C(c2ccc(C#N)cc2)n2cncn2)cc1 [Letrozole] (1000 nM)	101
O=C(O)CCCCC(CCSCc1ccccc1)SCc1ccccc1 (centres undefined) [CPI-613] (10 nM)	112
CNC(=O)c1cc(Oc2ccc(NC(=O)Nc3cc(C(C)(C)C)nn3-c3ccc4ncccc4c3)c(F)c2)ccn1 [Rebastinib] (100 nM)	119
O=C(O)CCCCC(CCSCc1ccccc1)SCc1ccccc1 (centres undefined) [CPI-613] (1 nM)	106
CC[C@@H]1C(=O)N(C)c2cnc(Nc3ccc(C(=O)NC4CCN(C)CC4)cc3OC)nc2N1C1CCCC1 [BI 2536] (0.1 nM)	106
O=C(/C=C/c1cccnc1)NCCCCC1CCN(C(=O)c2ccccc2)CC1 [Daporinad] (0.1 nM)	102
C[C@H]1C[C@@H]2[C@H]([C@@H](O)C[C@@]3(C)[C@H]2CC[C@]3(O)C(=O)CO)[C@@]2(C)C=CC(=O)C=C12 [Methylprednisolone] (1 nM)	103
Nc1ccccc1NC(=O)c1ccc(CNC(=O)OCc2cccnc2)cc1 [Entinostat] (1 nM)	98.1

Please give normalised response for each item listed below.
1. C=CC(=O)Nc1cc2c(Nc3ccc(F)c(Cl)c3)ncnc2cc1OCCCN1CCOCC1 [Canertinib] (1 nM)
2. O=C(O)C(=O)O.[NH-][C@@H]1CCCC[C@H]1[NH-].[Pt+2] [Oxaliplatin] (1000 nM)
3. COc1cc([C@@H]2c3cc4c(cc3[C@@H](O[C@@H]3O[C@@H]5CO[C@@H](c6cccs6)O[C@H]5[C@H](O)[C@H]3O)[C@H]3COC(=O)[C@H]23)OCO4)cc(OC)c1O [Teniposide] (10 nM)
4. CC1=C(/C=C/C(C)=C/C=C/C(C)=C/C(=O)O)C(C)(C)CCC1 [Tretinoin] (1000 nM)
5. COc1cc([C@@H]2c3cc4c(cc3[C@@H](O[C@@H]3O[C@@H]5CO[C@@H](c6cccs6)O[C@H]5[C@H](O)[C@H]3O)[C@H]3COC(=O)[C@H]23)OCO4)cc(OC)c1O [Teniposide] (1000 nM)
6. CCCCC(=O)OCC(=O)[C@]1(O)Cc2c(O)c3c(c(O)c2[C@@H](O[C@H]2C[C@H](NC(=O)C(F)(F)F)[C@H](O)[C@H](C)O2)C1)C(=O)c1c(OC)cccc1C3=O [Valrubicin] (5 nM)
7. COc1cc2nccc(Oc3ccc(NC(=O)Nc4cc(C)on4)c(Cl)c3)c2cc1OC [Tivozanib] (1000 nM)
8. O=C(/C=C/c1cccnc1)NCCCCC1CCN(C(=O)c2ccccc2)CC1 [Daporinad] (1 nM)

108
96.5
98.8
82
82.8
106
99.2
106

Please give normalised response for each item listed below.
1. CCN(CC)CCCC(C)Nc1c2ccc(Cl)cc2nc2ccc(OC)cc12 (centres undefined) [Mepacrine] (5 nM)
2. COc1cc2c(NC3CCN(C(C)C)CC3)nc(C3CCCCC3)nc2cc1OCCCN1CCCC1 [UNC0638] (1000 nM)
3. Cc1ccc(-c2cc(C(F)(F)F)nn2-c2ccc(S(N)(=O)=O)cc2)cc1 [Celecoxib] (10 nM)
4. CCc1cncnc1N1CCN(Cc2nc3ccc(C(F)(F)F)cc3[nH]2)CC1 (1000 nM)
5. C[C@H]1C[C@@H]2[C@H]([C@@H](O)C[C@@]3(C)[C@H]2CC[C@]3(O)C(=O)CO)[C@@]2(C)C=CC(=O)C=C12 [Methylprednisolone] (1000 nM)
6. CC[C@@H]1C(=O)N(C)c2cnc(Nc3ccc(C(=O)NC4CCN(C)CC4)cc3OC)nc2N1C1CCCC1 [BI 2536] (1 nM)
7. Cc1cnc(NC(=O)Nc2cc(Br)c(C)cc2OC[C@@H]2CNCCO2)cn1 [Rabusertib] (0.1 nM)

[107, 76.7, 105, 103, 96.7, 102, 109]

Look up normalised response of Nc1ncn([C@H]2C[C@H](O)[C@@H](CO)O2)c(=O)n1 [Decitabine] (10 nM) and report it.
98.5
